- experiment_description: Bidirectional transport (Papp) across Caco-2 cell monolayers
- Format: in vitro ADME, human
- reported_conditions: human, Caco-2, pH 7.4, 0.04 mg/mL (58.4 μM), Human Caco-2, BL→AP pH 7.4/7.4, N = 2; read-out: Papp × 10^−6 Avg
measurement_label: Papp B→A at 120 min, 0.04 mg/mL (×10⁻⁶ cm/s)
Value expressed in ×10⁻⁶ cm/s; do not type the unit.

Ask | Report measured Papp B→A at 120 min, 0.04 mg/mL; entry is COCCc1ccc(OCC(O)CNC(C)C)cc1 (stereo not shown)
Reply | 17.7

====

- experiment_description: Bidirectional transport (Papp) across Caco-2 cell monolayers
- Type: in vitro ADME, human
- reported_conditions: human, Caco-2, pH 6.8, 1 mg/mL (3380 μM), Human Caco-2, AP→BL pH 6.8/7.4, individual wells; read-out: Papp × 10^−6
measurement_label: Papp A→B at 120 min, 1 mg/mL (×10⁻⁶ cm/s)
Note: unit ×10⁻⁶ cm/s is implicit; provide only the numeric part.

Ask | Note down Papp A→B at 120 min, 1 mg/mL recorded for CC(C)NCC(O)COc1cccc2ccccc12 (stereo not shown)
Reply | 12.1
